Data origin: PubChem BioAssay

Test: P. aeruginosa biofilm formation inhibitors, primary screen, PAO1 strain, BacTiter-Glo luminescence, LB-PBS (AID 1144)
Details: 12 h, higher = more signal
# z-score annotations

{"Compound": "COC(=O)[C@H](CCSC)NC(=O)CC=C[C@@H](C)CO", "z-score": -0.449}
{"Compound": "CCOC(=O)[C@H](Cc1ccccc1)NC(=O)CCC1CC(OC(=O)NCCc2ccc(F)cc2)CC2(CCCC(COC(=O)NCc3cccc(C(F)(F)F)c3)O2)O1 (stereo not given in full)", "z-score": 0.885}
{"Compound": "CON=C(C)CCC(=O)OC[C@H]1O[C@H](C#Cc2ccccc2)C=C[C@@H]1Oc1ccc(C)cc1", "z-score": -0.0775}
{"Compound": "C[C@@H]1CC[C@@H](C(=O)O)N[C@H]1c1cccc(N2CCOCC2)c1", "z-score": -1.08}
{"Compound": "C[C@H]1CC[C@H]2C(=O)N[C@H](Cc3ccccc3)C(=O)N2[C@@H]1c1ccccc1", "z-score": 0.108}
{"Compound": "COC(=O)CC=C[C@@H](C)[C@@H](C=NOC(C)CN1CCCc2nc(C)c(C)cc21)NS(=O)(=O)c1ccc(C)cc1 (stereo not given in full)", "z-score": 1.42}
{"Compound": "C[C@@H](c1ccccc1)N1C(=O)[C@H]2[C@H]3[C@H](O)[C@H](O)CC(=NOCc4ccccc4)[C@@H]3CC[C@H]2C1=O", "z-score": 1.01}
{"Compound": "COC(=O)[C@H](C)NC(=O)CCC1CC(OC(=O)NCCc2ccc(F)cc2)CC2(CCCC(COC(=O)NCC3CCCCC3)O2)O1 (stereo not given in full)", "z-score": 0.0852}
{"Compound": "COC(=O)C(C(=O)OC)C1CCCC(=O)C1 (stereo not given)", "z-score": -0.619}
{"Compound": "COC(=O)[C@H](C)NC(=O)CCC1CC(OC(=O)NCc2cccc3ccccc23)CC2(CCCC(COC(=O)NCc3cccc(C(F)(F)F)c3)O2)O1 (stereo not given in full)", "z-score": -1.07}
